The compounds listed here are annotated with their Potency.
Assay: Quantitative High-Throughput drug screen in 47 multiple myeloma cell lines against the NCATS MIPE library collection: KMS28PE_JCRB cell viability assay (AID 1918983); also: potency is read from the fitted curve at half-maximal effect; nearly all actives have a fitted effect of over 35% in size
Conditions: KMS28PE multiple myeloma viability, CellTiter-Glo ATP, 48 h; series mostly up to 45.8 µM
Inconclusive results are not listed. Calls of active or inactive are those of the source. Calls follow the shape of the dose curve; as a rule, active = well fitted cell-killing curve with a large enough effect; inconclusive = small, poorly fitted or top-dose-only effect, or effect the other way; inactive = no such curve, though single readings can be large or run the other way.

structure smiles	Potency
CNC(=O)c1ccc(N2C(=S)N(c3cnc(C#N)c(C(F)(F)F)c3)C(=O)C23CCC3)cc1F	26400 nM (active)
O=C(Nc1ncc(-c2cc(C(F)F)nn2-c2c(Cl)cccc2Cl)s1)C1CC1	935 nM (active)
Nc1nc(Nc2ccc(S(N)(=O)=O)cc2)nn1C(=O)c1c(F)cccc1F	8330 nM (active)
COc1cc(OC2CCN(C)CC2)ccc1Nc1ncc2c(n1)n(C1CCCC1)c(=O)n2C	16600 nM (active)
Nc1cc(C(F)(F)F)c(-c2cc(N3CCOCC3)nc(N3CCOCC3)n2)cn1	935 nM (active)
CC(C)(O)c1cc2nc(-c3cnc(N)nc3)nc(N3CCOCC3)c2s1	37.2 nM (active)

Turning now to a further compound:
query: Requested field: Potency. Item: "CNC(=O)c1ccccc1Nc1nc(Nc2ccc(N3CCOCC3)cc2OC)ncc1Cl"
result: 935 nM (active)
